Target: T1, T4 Dda-E94C/A360C helicase (Enterobacteria phage T4, UniProt P32270 SEQ:1-439, E94C/A360C, then (ΔM1)G1G2)
T1 sequence: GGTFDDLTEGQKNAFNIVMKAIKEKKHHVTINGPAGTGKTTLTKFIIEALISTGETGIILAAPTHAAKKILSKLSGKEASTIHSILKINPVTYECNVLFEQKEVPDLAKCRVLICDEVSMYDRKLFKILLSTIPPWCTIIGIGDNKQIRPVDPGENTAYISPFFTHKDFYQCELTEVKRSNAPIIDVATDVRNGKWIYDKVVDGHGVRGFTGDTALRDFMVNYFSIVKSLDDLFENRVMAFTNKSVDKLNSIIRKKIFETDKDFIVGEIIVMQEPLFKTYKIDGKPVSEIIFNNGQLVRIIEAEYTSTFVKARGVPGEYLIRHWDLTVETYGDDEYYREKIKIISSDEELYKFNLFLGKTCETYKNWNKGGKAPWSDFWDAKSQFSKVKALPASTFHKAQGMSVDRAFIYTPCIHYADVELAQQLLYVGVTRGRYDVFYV
Assay: EMSA; one helicase stalled in at least one buffer with ATP/MgCl2
Settings: 50 nt ssDNA overhang with duplex
recorded.metric: binding result

Some solved entries appear below for comparison.
binder: Table 11 construct 3 (8 iSpC3) (mixed, 8 iSpC3 between SEQ 9 and SEQ 36) DNA 1: TTTTTTTTTTTTTTTTTTTTTTTTTTTTTTTTTTTTTTTTTTTTTTTTTTTCGCTGCTCCACAGGTCTCAGCTTGAGCAGCGA DNA 2: TCGCTGCTCAAGCTGAGACCTGTGGAGCAGCGA
binding result: binds
--
binder: Table 11 construct 5 (1 iSp18) (mixed, 1 iSp18 between SEQ 9 and SEQ 36) DNA 1: TTTTTTTTTTTTTTTTTTTTTTTTTTTTTTTTTTTTTTTTTTTTTTTTTTTCGCTGCTCCACAGGTCTCAGCTTGAGCAGCGA DNA 2: TCGCTGCTCAAGCTGAGACCTGTGGAGCAGCGA
binding result: binds
--
binder: Table 11 construct 4 (12 iSpC3) (mixed, 12 iSpC3 between SEQ 9 and SEQ 36) DNA 1: TTTTTTTTTTTTTTTTTTTTTTTTTTTTTTTTTTTTTTTTTTTTTTTTTTTCGCTGCTCCACAGGTCTCAGCTTGAGCAGCGA DNA 2: TCGCTGCTCAAGCTGAGACCTGTGGAGCAGCGA
binding result: binds
--
binder: Table 11 construct 6 (2 iSp18) (mixed, 2 iSp18 between SEQ 9 and SEQ 36) DNA 1: TTTTTTTTTTTTTTTTTTTTTTTTTTTTTTTTTTTTTTTTTTTTTTTTTTTCGCTGCTCCACAGGTCTCAGCTTGAGCAGCGA DNA 2: TCGCTGCTCAAGCTGAGACCTGTGGAGCAGCGA
binding result: binds

// query binding result value for entry Table 11 construct 2 (4 iSpC3) (mixed, 4 iSpC3 between SEQ 9 and SEQ 36) DNA 1: TTTTTTTTTTTTTTTTTTTTTTTTTTTTTTTTTTTTTTTTTTTTTTTTTTTCGCTGCTCCACAGGTCTCAGCTTGAGCAGCGA DNA 2: TCGCTGCTCAAGCTGAGACCTGTGGAGCAGCGA binds
